- System: OVCAR-4 ovarian
- Assay Details: NCI-60 one-dose screen, 48 h
- Conditions Used: 10 µM unless noted
Compounds without any hit were thinned out: in the full panel of roughly 83,000, 20% have a hit. Activity calls are given as the source filed them. How the source made its calls: active means growth percent below 10; inactive means the rest.
Mark one answer only. Choices: TRUE for active, FALSE for inactive

// known answers, use as guide
CCNC(=O)N1CCc2cc(OC)c(OCCc3ccc(OC)c(N)c3)cc2C1c1ccc(C)cc1C (stereo not given)    FALSE
COc1ccc(-c2nn(-c3ccc(S(C)(=O)=O)cc3)cc2/C=N/O)cc1    FALSE

Q) I'd appreciate the recorded outcome for `Oc1ccc(CSc2nnc(-c3ccc(Cl)cc3)n2-c2ccccc2)c2cccnc12` from this test.
A) FALSE

Q) I'd appreciate the recorded outcome for `CC[C@@H](CO)Nc1ccc2ncc(C#Cc3cncc(C(=O)Nc4ccc(CN5CCN(C)CC5)c(C(F)(F)F)c4)c3)n2n1` from this test.
A) TRUE

Q) I'd appreciate the recorded outcome for `Cc1ccc(S(=O)(=O)NCCNc2nc(Nc3ccc(N4CCN(C)CC4)cc3)nc3ccsc23)cc1` from this test.
A) FALSE

Q) I'd appreciate the recorded outcome for `CC(C)C[C@@H]1N[C@@]2(C(=O)Nc3ccccc32)[C@@H](c2ccc(F)cc2)[C@@H]1C(=O)c1ccc(O)cc1` from this test.
A) FALSE

Q) I'd appreciate the recorded outcome for `COc1cc(OC)c(S(N)(=O)=O)cc1C(C)=O` from this test.
A) FALSE

* * *

- System: MALME-3M melanoma
- Assay Details: NCI-60 one-dose screen, 48 h
- Conditions Used: 10 µM unless noted
- Method: Cells are grown in 96 well plates and exposed to the test compound for 48 hours. Compounds are tested at a single concentration, which is 10^-5 M for most compounds. The reported endpoint is percent growth (GI% or GIPRCNT), where numbers from 0 - 100% represent growth inhibition, and numbers from -100% - 0 represent cell death. For example, a value of 40 represents 60% growth inhibition. A value of 0 means no net growth occurred over the course of the experiment. […]
About 83,000 compounds went through this panel and 20% of them were active in at least one assay; those are over-represented in the sample as a whole. Calls of active or inactive are those of the source. The calls were made as follows: active = growth percent below 10; inactive = the rest.
Mark one answer only. Choices: active, inactive

// known answers, use as guide
CCOc1ccc(NC2=C(Cl)C(=O)c3nc(C)ccc3C2=O)cc1    active
COc1cccc(/C=C(/C)c2ccc3cccc(OC)c3[o+]2)c1O    inactive

Q) I'd appreciate the recorded outcome for `O=C1/C(=C/C=C/c2ccco2)SC(=S)N1C1CCCCC1` from this test.
A) inactive

Q) I'd appreciate the recorded outcome for `O=S(=O)(Nc1cccc2ccccc12)c1ccc(-c2cnc(C3CC3)o2)cc1` from this test.
A) inactive

Q) I'd appreciate the recorded outcome for `CN(C)CCN(C)c1ccc2ncc(C#Cc3cncc(C(=O)Nc4ccc(CN5CCN(C)CC5)c(C(F)(F)F)c4)c3)n2n1` from this test.
A) inactive

* * *

- Tested on: NCI/ADR-RES ovarian
- Assay Details: NCI-60 one-dose screen, 48 h
- Conditions Used: 10 µM unless noted
- Experimental: Growth inhibition of the NCI/ADR-RES human […] tumor cell line is measured as a screen for anti-cancer activity. Cells are grown in 96 well plates and exposed to the test compound for 48 hours. Compounds are tested at a single concentration, which is 10^-5 M for most compounds. The reported endpoint is percent growth (GI% or GIPRCNT), where numbers from 0 - 100% represent growth inhibition, and numbers from -100% - 0 represent cell death. For example, a value of 40 represents 60% growth inhibition. […]
This is part of a sample that, as a whole, favours compounds with a hit. Of some 83,000 tested, about 20% had one in any assay. Active and inactive are the calls of the source. How the source made its calls: active means growth percent below 10; inactive means the rest.
Mark one answer only. Choices: active, inactive

// known answers, use as guide
CCC1=Cc2cc(OC)ccc2OC12C=Cc1cc(OC)ccc1O2 (centres undefined)    inactive
O=c1c2ccccc2nc(COc2ccccc2)n1NS(=O)(=O)c1ccc(Cl)cc1    inactive
CN1CCN(Cc2ccc(NC(=O)c3cncc(C#Cc4cnc5ccc(OCC6(C)COC6)nn45)c3)cc2C(F)(F)F)CC1    active
Fc1ccc(-c2cc3nc(C(Cl)Cl)nc(-c4ccc(F)cc4)n3n2)cc1    inactive
COc1ccc(C(=O)CSc2nc3c(c(Nc4ccc(S(N)(=O)=O)cc4)n2)CCCC3)cc1    inactive

Q) I'd appreciate the recorded outcome for `CC(=O)O[C@@H]1C(=O)N(c2cnccn2)[C@H]1c1ccccc1[N+](=O)[O-]` from this test.
A) inactive

Q) I'd appreciate the recorded outcome for O=C(c1ccc(Cl)cc1)C1[C@H](c2ccc(Cl)cc2)[C@@H](c2ccccc2)NC12C(=O)Nc1ccccc12 (some centres undefined) from this test.
A) inactive

Q) I'd appreciate the recorded outcome for `O=C(O)c1ccc(-n2cc(CNc3cccc(Cl)c3)c(-c3ccc(F)cc3)n2)cc1` from this test.
A) inactive
